Reference source: PubChem BioAssay

assay.explanation: drug combination growth inhibition, ovarian cancer – cell-based, oncology-focused library, rucaparib conditional, profiling panel (AID 1508598)
setup.conditions: patient-derived ovarian cancer cells, CellTiter-Glo viability, 144 h; at 5 µM; OCI-C5x cells; with rucaparib 10 µM; stronger effect = lower value; 100% = cells with rucaparib alone
Calls of active or inactive are those of the source.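 How the source made its calls: active means normalized viability below 100% at a tested concentration; inactive means the rest.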
Reported viability values for a set of compounds

The cases that follow already have their viability on record.
compound	readout.kind	result
CC(=O)c1c(C)c2cnc(Nc3ccc(N4CCNCC4)cn3)nc2n(C2CCCC2)c1=O	viability	114% (inactive)
C/C(=C\C(=O)Nc1ccccc1C(=O)O)c1ccc2ccccc2c1	viability	89.8% (active)

In: Which viability is listed for `CN(C)N=Nc1nc[nH]c1C(N)=O` ?
Out: 201% (inactive)

In: Follow-up entry: `CN(C)CC[C@H](CSc1ccccc1)Nc1ccc(S(=O)(=O)NC(=O)c2ccc(N3CCN(Cc4ccccc4-c4ccc(Cl)cc4)CC3)cc2)cc1[N+](=O)[O-]`
Out: 7.96% (active)

In: What do we get for `CNc1nc(-c2ccc3c(N)n[nH]c3c2)cc(N2C[C@@H](C(=O)NC3CCCCC3)CC[C@H]2C)n1` ?
Out: 67.5% (active)

In: Try `Nc1ccc(-c2ccc3ncc4ccc(=O)n(-c5cccc(C(F)(F)F)c5)c4c3c2)cn1` next.
Out: 33.1% (active)

In: // next record `Cc1nc(Nc2n[nH]c3c2CN(C(=O)N[C@H](CN(C)C)c2ccccc2)C3(C)C)c2sccc2n1`
Out: 8.03% (active)

In: Same read-out for `CC(C)[C@H](C(=O)Nc1ccc(C(=O)NO)cc1)c1ccccc1` ?
Out: 5.04% (active)

In: What do you get for `COC(=O)c1ccc2c(C(=Nc3ccc(N(C)C(=O)CN4CCN(C)CC4)cc3)c3ccccc3)c(O)[nH]c2c1` ?
Out: 124% (inactive)

###

assay.explanation: viability loss with induced miR-34 in A549 – imaging, A549 dox-inducible miR-34, nuclei and caspase counts, primary screen (AID 1347080)
setup.conditions: A549 miR-34 inducible, Hoechst nuclei count, 48 h; measured here: relative caspase fold change +Dox/-Dox
readout.kind: fold change
The response must contain the number and no unit.

compound	fold change
CCCCCC(=O)CC[C@H]1C(=O)C[C@H](O)[C@@H]1C/C=C\CCCC(=O)O	1.09
CCCCC[C@](C)(O)/C=C/[C@@H]1[C@@H](C/C=C\CCCC(=O)OC)[C@@H](O)C[C@H]1O	1.61
O=C(Nc1ccc(-c2ccnc(Nc3ccc(N4CCOCC4)cc3)n2)cc1)C1CCCN1 (centres undefined)	0.977
CC(=O)OC1=C(C)NC(C)=C(OC(C)=O)C1c1ccccc1[N+](=O)[O-]	1.01
CCCCC/C=C\C/C=C\CCCCCCCC(=O)OC(CO)CO	0.884

In: Given the entry `N=C(N)SCCC[C@H](N)C(=O)O` , report its measured fold change.
Out: 0.775

In: Another compound to look at: `Fc1cc(-c2cccc3ncc(-c4cnn(C5CCNCC5)c4)nc23)cc(F)c1CN1CCOCC1`
Out: 0.777

In: `Nc1ccc(-c2ccc3ncc4ccc(=O)n(-c5cccc(C(F)(F)F)c5)c4c3c2)cn1` ?
Out: 1.14

In: Also `c1ccc(N2CCN(Cc3nc4ccccc4[nH]3)CC2)nc1` ?
Out: 2.02

In: What do you get for `CC(C)c1cc(-c2n[nH]c(=O)n2-c2ccc3c(ccn3C)c2)c(O)cc1O` ?
Out: 0.773

In: Same question, `COC(=O)[C@H](Cc1ccc([N+](=O)[O-])cc1)NC(=O)c1cccc2ccccc12` this time
Out: 0.966

In: Thanks! And `O=C(Nc1ccc2c(c1)CCN(Cc1ncn[nH]1)C2)c1ccccc1-c1ccc(C(F)(F)F)cc1` ?
Out: 1.06
